- Tested on: Hek293T
- Assay protocol: Primary qHTS to identify gynecologic anti-cancer compounds using libraries of approved drugs and bioactive compounds (AID 1345084); note: nearly all actives have a fitted effect of over 55% in size
- Test parameters: Gynecologic cancer cell panel viability, ATPlite luminescence, 48 h, control line for the selectivity index; series mostly up to 57.5 µM
Inconclusive results are not listed. Active and inactive are the calls of the source. Calls come from the whole dose curve; as a rule, active = well fitted cell-killing curve with a large enough effect; inconclusive = small, poorly fitted or top-dose-only effect, or effect the other way; inactive = flat fitted curve, though single readings scatter.
Outcomes: active, inactive

{"columns": ["Compound", "Assigned class"],
 "data": [
  ["Cc1ccc(-n2nccn2)c(C(=O)N2CCN(c3nc4cc(Cl)ccc4o3)CCC2C)c1 (stereo not drawn)", "inactive"],
  ["C=C1[C@@H](C)[C@H]2[C@H](Cc3ccccc3)NC(=O)[C@]23OC(=O)/C=C/C(=O)CCC[C@@H](C)C/C=C/[C@H]3[C@@H]1O", "active"],
  ["C[C@]12CC[C@H](O)C[C@@H]1CC[C@@H]1[C@@H]2CC[C@]2(C)C(=O)CC[C@@H]12", "inactive"],
  ["CCC1NC(=O)C2C(Cl)C(Cl)CN2C(=O)C(CC)NC(=O)CC(c2ccccc2)NC(=O)C(CO)NC1=O (stereo not drawn)", "inactive"],
  ["FC(F)(F)c1ccc(N2CCNCC2)nc1Cl", "inactive"],
  ["CC(C)(C)[C@]1(O)C[C@@H]2OC(=O)C[C@@]23C(=O)O[C@@H]2OC(=O)[C@@H](O)[C@]213", "inactive"],
  ["CCN1C[C@]2(COC)CC[C@H](O)[C@@]34C5C[C@@H]6[C@@H](OC)C[C@@](OC(C)=O)(C5[C@@H]6OC(C)=O)[C@H]([C@H](OC)C23)[C@@H]14 (stereo partly drawn)", "inactive"],
  ["Cc1[nH]c2ccc(Cl)cc2c1CCN(C)C", "inactive"]
]}

* * *

- Assay protocol: qHTS for Inhibitors of the Functional Ribonucleoprotein Complex (vRNP) of Lassa (LASV) Arenavirus: Viability assay - alamar blue signal for LASV Primary Screen (AID 1347083); note: nearly all actives have a fitted effect of over 80% in size
- Test parameters: cell viability, alamar blue fluorescence (LASV minigenome counter-screen); series mostly up to 57.5 µM
Results filed as inconclusive are left out. The source made the active and inactive calls. Calls follow the shape of the full dose curve; tested in HEK293 reporter line.
Outcomes: True for active, False for inactive

{"columns": ["Molecule", "Assigned class"],
 "data": [
  ["N[C@@H](Cc1ccc(F)cc1)C(=O)O", "False"],
  ["C=CC[C@H](N)C(=O)O", "False"],
  ["CCCCCCN(CCCCCC)C(=O)Cc1c(-c2ccc(F)cc2)[nH]c2ccccc12", "False"],
  ["C[N+](C)(C)CCOP(=O)([O-])OC[C@H](O)CO", "False"],
  ["CC(=O)OC1c2c(ccc3ccc(=O)oc23)OC(C)(C)C1OC(=O)CC(C)C (configuration not stated)", "False"],
  ["CC(=O)O[C@H](COc1c2ccoc2cc2oc(=O)ccc12)C(C)(C)O", "False"],
  ["Cc1ccc(C(C)(C)O)cc1", "False"],
  ["Nc1ccc(CCNc2ncnc3c2ncn3C2OC(CO)C(O)C2O)cc1 (configuration not stated)", "False"],
  ["Cc1cncc2cccc(S(=O)(=O)N3CCCN(C(=O)CN)C[C@@H]3C)c12", "False"],
  ["CC1(C)Oc2ccc3ccc(=O)oc3c2C[C@H]1O[C@@H]1O[C@H](CO)[C@@H](O)[C@H](O)[C@H]1O", "False"],
  ["C=C1C(=O)[C@@]23C(CC[C@@H]1[C@H]2O)[C@@]12CO[C@]3(O)[C@@H](O)[C@@H]1C(C)(C)CC[C@@H]2O (some centres not stated)", "True"],
  ["C=Cc1c(C)c2cc3nc(cc4[nH]c(cc5nc(cc1[nH]2)C(C)=C5CCC(=O)O)c(CCC(=O)OC)c4C)[C@@]1(C)C3=CC=C(C(=O)OC)[C@H]1C(=O)OC", "True"],
  ["CNc1ncnc2c1ncn2[C@@H]1O[C@H](CO)C(O)[C@H]1O (some centres not stated)", "False"],
  ["COc1ccc(-c2cc(=O)c3c(O)cc(O)c(-c4cc(-c5cc(=O)c6c(O)cc(OC)cc6o5)ccc4OC)c3o2)cc1", "False"],
  ["CC12CCC(=O)C=C1CCC1C2CCC2(C)C(C(=O)CO)CC(O)C12 (configuration not stated)", "False"],
  ["COc1cc(/C=C/c2ccccc2)cc(OC)c1", "False"],
  ["N#Cc1cc2nc(O)c(O)nc2cc1[N+](=O)[O-]", "False"],
  ["C[C@H](CCC(=O)O)[C@H]1CC[C@H]2[C@@H]3CC[C@@H]4C[C@H](O)CC[C@]4(C)[C@H]3CC[C@]12C", "False"],
  ["COc1cc2oc(=O)ccc2cc1[C@H](O)[C@@H](O)C(C)(C)O", "False"],
  ["COC1CCC(C(=O)c2ccc3nc4c(cc3c2)CCCO4)CC1 (configuration not stated)", "False"],
  ["COc1cc2c(cc1OC)C(C(=O)c1ccc(OC)c(OC)c1O)=NCC2", "False"],
  ["CCCCCCCCCCCCCCSCC(=O)O", "False"],
  ["CCCCCCCCOC(C)=O", "False"],
  ["Oc1cc(O)cc(C=Cc2ccc(O)c(O)c2)c1", "False"],
  ["CSc1nc(N)c2ncn([C@@H]3O[C@H](COP(=O)(O)OP(=O)(O)O)C(O)[C@H]3O)c2n1 (some centres not stated)", "False"],
  ["C/C=C(/C)C(=O)O[C@@H]1c2c(ccc3ccc(=O)oc23)O[C@@H]1C(C)(C)OC(C)=O", "False"],
  ["Cc1c(-c2cccc3c(CCCOc4cccc5ccccc45)c(C(=O)O)n(Cc4cccnc4)c23)c(COc2ccc(N3CCN([S+](=O)([O-])N(C)C)CC3)cc2)nn1C", "False"],
  ["CN(C)Cc1c[nH]c2ccccc12", "False"],
  ["COc1cc2c(cc1OC)OC(C)(C)C=C2", "False"],
  ["COc1cc(CCc2cc(NC(=O)c3ccc(N4C[C@@H](C)N[C@@H](C)C4)cc3)n[nH]2)cc(OC)c1", "True"],
  ["COc1ccc(-c2cc3nccn3c(Nc3ncccc3C(N)=O)n2)cc1OC", "True"],
  ["CNC(=O)CN1CCC(Oc2cc3c(Nc4cccc(Cl)c4F)ncnc3cc2OC)CC1", "True"],
  ["O=C(O)[C@@H]1C[C@@H](C(=O)O)N1", "False"],
  ["CC1(C)Oc2cc3oc(=O)ccc3cc2C[C@@H]1O", "False"],
  ["CCCCCCCC/C=C\\CCCCCCCC(=O)NCCO", "False"],
  ["CC(=O)c1ccccn1", "False"],
  ["COC(=O)c1ccc(N2CC3CNC(=O)C2(C(=O)OC)N3C)cc1 (configuration not stated)", "False"],
  ["CC1CC2C3CCC4=CC(=O)C=C[C@]4(C)[C@@]3(F)[C@@H](O)C[C@]2(C)[C@@]1(O)C(=O)CO (some centres not stated)", "False"],
  ["CCCCC[C@H](O)C=C[C@H]1[C@H](O)CC(=O)[C@H]1CCCCCCC(=O)O", "False"],
  ["CC(C)(O)c1cc2nc(-c3cnc(N)nc3)nc(N3CCOCC3)c2s1", "True"],
  ["CC(N)(C(=O)O)c1ccc(C(=O)O)cc1 (configuration not stated)", "False"],
  ["NC1(C(=O)O)CCc2cc(C(=O)O)ccc21 (configuration not stated)", "False"]
]}

* * *

- Subject of test: Glucocorticoid receptor (Homo sapiens) (UniProt P04150)
- Sequence (P04150 whole entry, looked up): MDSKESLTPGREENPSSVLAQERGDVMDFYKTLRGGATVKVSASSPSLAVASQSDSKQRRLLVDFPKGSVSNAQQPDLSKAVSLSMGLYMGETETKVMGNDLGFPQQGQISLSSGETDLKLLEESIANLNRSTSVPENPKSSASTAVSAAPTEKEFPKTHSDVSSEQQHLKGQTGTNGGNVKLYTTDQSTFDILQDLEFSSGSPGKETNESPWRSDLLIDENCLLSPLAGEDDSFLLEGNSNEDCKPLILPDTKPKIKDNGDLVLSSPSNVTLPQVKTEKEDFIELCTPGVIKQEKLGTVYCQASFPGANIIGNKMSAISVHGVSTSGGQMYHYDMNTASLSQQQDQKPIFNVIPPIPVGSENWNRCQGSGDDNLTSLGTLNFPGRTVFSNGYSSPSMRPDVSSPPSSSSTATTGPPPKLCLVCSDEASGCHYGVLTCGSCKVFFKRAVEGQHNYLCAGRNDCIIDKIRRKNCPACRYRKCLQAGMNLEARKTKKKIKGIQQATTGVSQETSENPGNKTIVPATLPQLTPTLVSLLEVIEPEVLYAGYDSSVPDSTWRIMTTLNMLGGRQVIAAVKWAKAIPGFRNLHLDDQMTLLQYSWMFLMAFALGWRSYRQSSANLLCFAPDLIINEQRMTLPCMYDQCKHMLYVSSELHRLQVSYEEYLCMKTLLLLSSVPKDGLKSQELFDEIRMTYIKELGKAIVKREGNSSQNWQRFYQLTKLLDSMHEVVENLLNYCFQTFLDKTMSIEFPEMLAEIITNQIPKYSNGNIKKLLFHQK
- Assay protocol: GR-GFP Redistribution (AID 450); note: potency is the fitted concentration of half-maximal effect
- Test parameters: U2OS GR-GFP nuclear translocation, laser cytometry, 2 h
Activity calls are given as the source filed them.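 The calls were made as follows: active = compounds whose dose series gives a full or clear partial fitted curve of increased nuclear translocation; inconclusive = weak partial curve or effect only at the top dose; inactive = no dose-dependent translocation response.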
Here the recorded Potency is given for each entry.
Measurement type: Potency

{"columns": ["Molecule", "Reading"],
 "data": [
  ["NCCCP(=O)(O)CC1CCCCC1", "> 46 µM (inactive)"],
  ["c1cncc(C2=NCCC2)c1", "> 20.6 µM (inactive)"],
  ["N[C@@H](Cn1cc(I)c(=O)[nH]c1=O)C(=O)O", "> 46 µM (inactive)"],
  ["COc1ccc(CCN)cc1O", "> 46 µM (inactive)"],
  ["CCCN1C[C@H](C)N([C@H](c2ccc(C(=O)N(CC)CC)cc2)c2cccc(OC)c2)C[C@H]1C", "> 46 µM (inactive)"],
  ["CCCCCCCCCOc1ccc2[nH]cc(CCN)c2c1", "> 46 µM (inactive)"],
  ["CC[C@H](Oc1ccc(Cl)cc1)C(=O)OC1C[C@H]2CC[C@@H](C1)N2C (stereo not given in full)", "> 46 µM (inactive)"],
  ["C=CCN1C[C@H](C)N([C@H](c2ccc(C(=O)N(CC)CC)cc2)c2cccc(O)c2)C[C@H]1C", "> 46 µM (inactive)"],
  ["O=C1/C(=C\\c2ccccc2)C[C@@]2(O)[C@H]3Cc4ccc(O)c5c4[C@@]2(CCN3CC2CC2)[C@@H]1O5", "> 46 µM (inactive)"],
  ["O=C(/C=C\\c1ccc(Cl)cc1)N[C@@]12CCC(=O)[C@@H]3Oc4c(O)ccc5c4[C@@]31CCN(CC1CC1)[C@@H]2C5", "1.63 µM (active)"]
]}
